Target: PD-1/PD-L1 interaction (Homo sapiens, UniProt Q9NZQ7)
Construct: expressed in transfected cells; host or cells: CHO cells (aAPC-PD-L1) co-cultured with Jurkat cells overexpressing PD-1 and an NFAT-luciferase reporter
Test: PD-1/PD-L1 NFAT reporter co-culture assay
Format: cell-based
Settings: Jurkat PD-1 NFAT-luciferase cells co-cultured with aAPC-PD-L1 CHO cells, 6 hrs at 37° C.; read-out: EC50 NFAT Luciferase
attribute.measured: EC50 (nM)

I. Cc1c(COc2cc(OCc3cncc(C#N)c3)c(CN[C@](C)(CO)C(=O)O)cc2Cl)cccc1-c1cccc(-c2ccc(OCCNCCO)cc2)c1C
II. COc1nc(O[C@H]2CCc3c(-c4cccc(-c5cnc6c(CNC[C@@H]7CCC(=O)N7)cn(C)c6n5)c4Cl)cccc32)c(Cl)cc1CN1CCC[C@@H](C(=O)O)C1
Lookup: // returns I or II , whichever has the lower EC50 Provide the label of your selected option as the answer.
Found: II
(II: 110 nM, I: 197 nM)

* * *

Target: PD-L1 (Homo sapiens)
Construct: determine if they can specifically dimerize the extracellular domains of PD-L1
Assay: PD-L1/PD-L1 dimerization biochemical protein-protein interaction assay (ALPHA)
Assay type: binding
Conditions: compound-induced PD-L1 dimerization, head prints '1 nM' (0.5 nM His-tagged PD-L1 and 0.5 nM FLAG-tagged PD-L1), read-out: AC50 PDL1 Dimer Alpha 1 nM
attribute.measured: AC50 (nM)

Example results:
Cc1c(COc2cc(OCc3cncc(C#N)c3)c(CNC[C@@H](O)CC(=O)O)cc2Cl)cccc1-c1cccc(-c2ccc(OCCNC[C@@H](O)CC(=O)O)c([N+](=O)[O-])c2)c1C : 170
N#Cc1cncc(COc2nc(OCc3cccc(-c4cccc(COc5nc(OCc6cncc(C#N)c6)c(CNC[C@@H](O)CC(=O)O)cc5Br)c4Cl)c3Cl)c(Br)cc2CNC[C@@H](O)CC(=O)O)c1 : 132

A. COc1nc(OCc2cccc(-c3cccc(-c4ccc5c(c4)C[C@@H](N)C5)c3Cl)c2Cl)c(Br)cc1CNC[C@H](O)CC(=O)O
B. Cc1c(COc2nc(OCCC(N)=O)c(CNCC(=O)O)cc2Cl)cccc1-c1cccc(COc2nc(OCCC(N)=O)c(CNCC(=O)O)cc2Cl)c1C
Lookup: Name the one with the greater AC50 value, either A or B as given. Provide the label of your selected option as the answer.
Found: B
(B: 334 nM, A: 74.6 nM)

* * *

Biological target: PD-L1 (Homo sapiens, UniProt Q9NZQ7)
Construct: determine if they can specifically dimerize the extracellular domains of PD-L1
Sequence (Q9NZQ7 19-238 limits assumed): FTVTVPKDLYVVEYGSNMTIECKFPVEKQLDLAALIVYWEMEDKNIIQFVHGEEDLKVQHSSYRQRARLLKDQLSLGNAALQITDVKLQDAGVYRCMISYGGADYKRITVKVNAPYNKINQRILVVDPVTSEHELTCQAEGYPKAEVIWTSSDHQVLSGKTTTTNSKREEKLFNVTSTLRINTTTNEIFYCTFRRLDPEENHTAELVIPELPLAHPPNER
Sequence (Q9NZQ7 19-238 limits assumed): as above
Assay: PD-L1/PD-L1 dimerization biochemical protein-protein interaction assay (ALPHA)
Format: binding
Settings: compound-induced PD-L1 dimerization, head prints '1 nM' (0.5 nM His-tagged PD-L1 and 0.5 nM FLAG-tagged PD-L1), read-out: AC50 PDL1 Dimer Alpha 1 nM
attribute.measured: AC50

Example results:
C[C@@](CO)(NCc1ccc(O[C@H]2CCc3c(-c4cccc(-c5ccc(C6=NCCN6)cc5)c4Cl)cccc32)nc1OCc1cncc(C#N)c1)C(=O)O [Example 740] : 0.0536 µM
Cc1c(OCc2cc(OCc3cncc(C#N)c3)c(CN[C@@](C)(CO)C(=O)O)cc2Cl)cccc1-c1cccc(-c2ccc(OCCN[C@@](C)(CO)C(=O)O)cc2)c1C [Example 388] : ≥ 10 µM

The recorded AC50 for entry COc1cc(-c2cccc(-c3cccc(-c4cnc(C5=NCCN5)c(OC)c4)c3Cl)c2Cl)cnc1C1=NCCN1 [Example 630] equals ≥ 10 µM

This collection of values is drawn from patent US12590062B2.
